Biological target: T1, rat MASP-2 catalytic fragment CCP1-CCP2-SP (rat, UniProt Q9JJS8 298-685)
T1 construct: Mw 42309 Da; also called rat MASP-2cf; MASP2cf
T1 sequence (Q9JJS8 other isoform, or with tags, fused parts or gaps limits assumed): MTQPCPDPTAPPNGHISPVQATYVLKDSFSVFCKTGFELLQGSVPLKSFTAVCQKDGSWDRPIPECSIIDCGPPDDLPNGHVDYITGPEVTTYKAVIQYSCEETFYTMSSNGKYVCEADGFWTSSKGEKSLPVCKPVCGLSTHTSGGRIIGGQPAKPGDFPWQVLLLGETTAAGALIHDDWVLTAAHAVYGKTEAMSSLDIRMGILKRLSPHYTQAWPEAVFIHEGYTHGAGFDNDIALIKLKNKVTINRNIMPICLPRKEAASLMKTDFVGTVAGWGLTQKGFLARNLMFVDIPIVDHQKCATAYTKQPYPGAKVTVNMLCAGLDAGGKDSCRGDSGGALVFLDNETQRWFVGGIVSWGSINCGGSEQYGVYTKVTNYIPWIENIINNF
Test: enzyme inhibition, Z-L-Lys-SBzl/DTNB, tight-binding fit, catalytic fragment CCP1-CCP2-SP
Method: For determining the KI of the inhibitors on MASP enzymes we used catalytic enzyme fragments containing the three C-terminal domains: CCP1-CCP2-SP. […] The release of the chromophore group created in this way was monitored via the change of absorbance at 410 nm using a BioTek Synergy H4 multimode microplate reader. […] where E is the free (uninhibited) enzyme concentration, and E₀ is the total enzyme concentration. […] The results were calculated as the average of parallel measurements.
Where no end group is shown, it is not given here.
Each entry below lists one item and its recorded Ki value.

{"Binder": "GSGEVTCEPGTTFKDKCNTCRCGSDGKSAVCTKLWCNQ (designed binder, Comparator from WO 2012/007777) [SGMI-2 (SGCI-based MASP inhibitor 2)]", "Result Unit": "nM", "Ki": 22.7}
{"Binder": "protein according to SEQ ID NO: 14 (TFPI-D2 variant with the inhibitor loop PCRAVKR) (designed binder, ends and bridges not checked; cysteine pairing not given here, Made as m1) KPDFCFLEEDPGPCRAVKRRYFYNNQTKQCERFKYGGCLGNMNNFETLEECKNICEDG", "Result Unit": "nM", "Ki": 7.2}
{"Binder": "protein according to SEQ ID NO: 11 (TFPI-D2 variant with the inhibitor loop FCRAVKR) (designed binder, ends and bridges not checked; cysteine pairing not given here, Made in E. coli as a His6-S100A4 fusion and freed by TEV protease) KPDFCFLEEDPGFCRAVKRRYFYNNQTKQCERFKYGGCLGNMNNFETLEECKNICEDG", "Result Unit": "nM", "Ki": 640}
{"Binder": "protein according to SEQ ID NO: 17 (TFPI-D2 variant with the inhibitor loop VCRAVKR) (designed binder, ends and bridges not checked; cysteine pairing not given here, Made as m1) KPDFCFLEEDPGVCRAVKRRYFYNNQTKQCERFKYGGCLGNMNNFETLEECKNICEDG", "Result Unit": "nM", "Ki": 7.5}
